# testedTarget: T1, carcinoembryonic antigen (CEA) (human, UniProt P06731 35-685)
# T1 sequence (looked up): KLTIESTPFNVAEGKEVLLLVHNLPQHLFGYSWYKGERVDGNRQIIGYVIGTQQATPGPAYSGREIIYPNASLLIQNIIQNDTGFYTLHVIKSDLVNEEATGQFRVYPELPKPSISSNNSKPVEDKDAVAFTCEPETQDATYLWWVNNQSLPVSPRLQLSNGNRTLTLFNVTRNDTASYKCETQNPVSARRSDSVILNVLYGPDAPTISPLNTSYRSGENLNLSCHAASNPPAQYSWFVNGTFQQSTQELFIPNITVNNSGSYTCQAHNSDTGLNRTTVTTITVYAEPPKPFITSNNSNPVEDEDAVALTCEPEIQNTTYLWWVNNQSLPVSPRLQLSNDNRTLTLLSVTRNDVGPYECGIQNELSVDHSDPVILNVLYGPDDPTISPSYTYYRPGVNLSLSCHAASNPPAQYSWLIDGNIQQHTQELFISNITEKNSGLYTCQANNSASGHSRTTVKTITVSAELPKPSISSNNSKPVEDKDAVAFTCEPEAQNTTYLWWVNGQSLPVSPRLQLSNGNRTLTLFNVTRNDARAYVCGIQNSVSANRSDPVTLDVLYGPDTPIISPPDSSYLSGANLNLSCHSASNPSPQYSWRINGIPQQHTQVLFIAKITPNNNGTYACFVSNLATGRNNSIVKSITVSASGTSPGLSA
# protocolNotes: competition RIA against 125I-mCOL-1; reference of the fold not named

# binder, Fold Difference, fold
records = [
    ("HuCOL-1AbrCDR framework variant 4 (FRV4) (antibody, V domains shown, also called HuCOL-1FRV4) VH: EVQLVQSGAEVVKPGASVKVSCKASGFNIKDYYMHWVRQRPEQGLEWMGWIDPENGDTEYAQKFQGRATMTTDTSTSTVYMELSSLRSEDTAVYYCNTRGLSTMITTRWFFDVWGAGTLVTVSS VL: DIVLTQSPASLAVSLGERATINCKSSQSVSASGYSYMHWYQQKPGQPPKLLIYLASNLQSGVPARFSGSGSGTDFTLTISSVQAEDVATYYCQHSRELPTFGGGTKLEIK", 1.1),
    ("HuCOL-1AbrCDR framework variant 10 (FRV10) (antibody, V domains shown, also called HuCOL-1FRV10) VH: QVQLVQSGAEVKKPGASVKVSCKASGYNIKDYYMHWVRQRPEQGLEWMGWIDPENGDTEYAQKFQGRVTMTTDTSTSTVYMELSSLRSEDTAVYYCNTRGLSTMITTRWFFDVWGAGTLVTVSS VL: DIVLTQSPASLAVSLGERATINCKSSQSVSASGYSYMHWYQQKPGQPPKLLIYLASNLQSGVPARFSGSGSGTDFTLTISSVQAEDVATYYCQHSRELPTFGGGTKLEIK", 0.9),
    ("FRV6 (antibody, name in Kabat numbering, V domains shown, Kabat positions (see notes of FRV2 and FRV5); also called HuCOL-1AbrCDR framework variant 6) VH: EVQLVQSGAEVVKPGASVKVSCKASGFNIKDYYMHWVRQRPEQGLEWMGWIDPENGDTEYAQKFQGRATMTTDTSTSTVYMELSSLRSEDTAVYYCNTRGLSTMITTRWFFDVWGAGTLVTVSS VL: DIVMTQSPASLAVSLGERATINCKSSQSVSASGYSYMHWYQQKPGQPPKLLIYLASNLQSGVPDRFSGSGSGTDFTLTISSLQAEDVAVYYCQHSRELPTFGGGTKVEIK", 2.8),
]
